- Assay text: Phase 1b clinical study (NCT01814826): plasma PK of PEV in combination with AZA
- Format: in vivo, human
- Test parameters: human, plasma, intravenous, plasma; dose escalation, 30 mg/m^2 cohort (N = 3); cycle 1, day 1; geometric mean
Property label: Cmax (ng/mL)
Entry rule: numbers only, all in ng/mL.

Look up Cmax for this compound: NS(=O)(=O)OC[C@@H]1C[C@@H](n2ccc3c(N[C@H]4CCc5ccccc54)ncnc32)C[C@@H]1O [PEV]
299

* * *

- Assay text: Phase 1b clinical study (NCT01814826): plasma PK of PEV in combination with AZA
- Type: in vivo, human
- Test parameters: plasma; MTD expansion, IV AZA cohort, N = 13; cycle 1, day 5; geometric mean
Property label: AUC48 (ng·h/mL)
Entry rule: numbers only, all in ng·h/mL.

Look up AUC48 for this compound: NS(=O)(=O)OC[C@@H]1C[C@@H](n2ccc3c(N[C@H]4CCc5ccccc54)ncnc32)C[C@@H]1O
1100
